Overview of reported pIC50 across a group of molecules:
Study System: Histone deacetylase 1 (Homo sapiens, UniProt Q13547)
Sequence (Q13547 whole entry): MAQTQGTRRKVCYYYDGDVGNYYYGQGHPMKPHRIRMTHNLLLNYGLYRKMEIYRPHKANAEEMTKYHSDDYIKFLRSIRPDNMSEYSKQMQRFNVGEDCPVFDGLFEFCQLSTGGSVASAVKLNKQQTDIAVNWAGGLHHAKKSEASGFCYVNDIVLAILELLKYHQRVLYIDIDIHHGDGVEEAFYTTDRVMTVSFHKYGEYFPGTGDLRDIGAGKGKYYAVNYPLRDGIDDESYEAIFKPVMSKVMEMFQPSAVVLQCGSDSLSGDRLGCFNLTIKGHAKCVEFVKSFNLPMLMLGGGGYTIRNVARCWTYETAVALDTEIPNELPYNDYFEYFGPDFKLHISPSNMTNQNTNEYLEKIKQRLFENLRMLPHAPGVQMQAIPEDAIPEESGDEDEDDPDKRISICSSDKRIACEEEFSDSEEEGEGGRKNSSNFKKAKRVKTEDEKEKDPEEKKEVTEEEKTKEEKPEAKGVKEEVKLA
Assay Details: Inhibition of recombinant human HDAC1 using (Ac-Leu-Gly-Lys(Ac)-AMC as substrate measured after 30 mins by fluorescence assay
pIC50: −log10 of the molar value.

Solved cases below.
CS(=O)(=O)Nc1ccc(-c2ccnc(Nc3ccc(-c4cn(CC(=O)NO)nn4)cc3)n2)cc1 < 5.70
N#CCNC(=O)c1ccc(-c2ccnc(Nc3ccc(N4CCOCC4)cc3)n2)cc1 7.40

Report pIC50 for CS(=O)(=O)Nc1ccc(-c2ccnc(Nc3ccc(-c4cn(CC(=O)Nc5ccc(C(=O)NO)cc5)nn4)cc3)n2)cc1 please.
< 5.70

Report pIC50 for CS(=O)(=O)Nc1ccc(-c2ccnc(Nc3ccc(N4CCN(CC(=O)NO)CC4)cc3)n2)cc1 please.
< 5.70

Report pIC50 for CS(=O)(=O)Nc1ccc(-c2ccnc(Nc3ccc(N4CCN(CC(=O)NCCC(=O)NO)CC4)cc3)n2)cc1 please.
< 5.70

---

Study System: UniProtKB Q9BY41
Sequence (Q9BY41 whole entry): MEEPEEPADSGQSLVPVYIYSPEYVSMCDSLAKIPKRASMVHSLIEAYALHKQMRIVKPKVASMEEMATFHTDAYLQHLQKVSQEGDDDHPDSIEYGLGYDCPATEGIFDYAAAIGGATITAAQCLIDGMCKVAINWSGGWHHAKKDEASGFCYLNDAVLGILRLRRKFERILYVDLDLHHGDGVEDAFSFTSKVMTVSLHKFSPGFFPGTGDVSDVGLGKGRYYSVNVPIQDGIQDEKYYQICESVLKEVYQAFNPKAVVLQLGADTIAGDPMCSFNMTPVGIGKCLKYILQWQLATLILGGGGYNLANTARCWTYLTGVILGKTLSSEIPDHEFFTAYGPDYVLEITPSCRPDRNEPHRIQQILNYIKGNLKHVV
Assay Details: Inhibition of recombinant human HDAC8 using (Ac-Leu-Gly-Lys(Tfa)-AMC as substrate measured after 30 mins by fluorescence assay
pIC50: −log10 of the molar value.
Assay Endpoint: pIC50

Report pIC50 for CS(=O)(=O)Nc1ccc(-c2ccnc(Nc3ccc(N4CCN(CC(=O)Nc5ccc(/C=C/C(=O)NO)cc5)CC4)cc3)n2)cc1 please.
< 6.00

---

Study System: UniProt O60674
Sequence (O60674 whole entry): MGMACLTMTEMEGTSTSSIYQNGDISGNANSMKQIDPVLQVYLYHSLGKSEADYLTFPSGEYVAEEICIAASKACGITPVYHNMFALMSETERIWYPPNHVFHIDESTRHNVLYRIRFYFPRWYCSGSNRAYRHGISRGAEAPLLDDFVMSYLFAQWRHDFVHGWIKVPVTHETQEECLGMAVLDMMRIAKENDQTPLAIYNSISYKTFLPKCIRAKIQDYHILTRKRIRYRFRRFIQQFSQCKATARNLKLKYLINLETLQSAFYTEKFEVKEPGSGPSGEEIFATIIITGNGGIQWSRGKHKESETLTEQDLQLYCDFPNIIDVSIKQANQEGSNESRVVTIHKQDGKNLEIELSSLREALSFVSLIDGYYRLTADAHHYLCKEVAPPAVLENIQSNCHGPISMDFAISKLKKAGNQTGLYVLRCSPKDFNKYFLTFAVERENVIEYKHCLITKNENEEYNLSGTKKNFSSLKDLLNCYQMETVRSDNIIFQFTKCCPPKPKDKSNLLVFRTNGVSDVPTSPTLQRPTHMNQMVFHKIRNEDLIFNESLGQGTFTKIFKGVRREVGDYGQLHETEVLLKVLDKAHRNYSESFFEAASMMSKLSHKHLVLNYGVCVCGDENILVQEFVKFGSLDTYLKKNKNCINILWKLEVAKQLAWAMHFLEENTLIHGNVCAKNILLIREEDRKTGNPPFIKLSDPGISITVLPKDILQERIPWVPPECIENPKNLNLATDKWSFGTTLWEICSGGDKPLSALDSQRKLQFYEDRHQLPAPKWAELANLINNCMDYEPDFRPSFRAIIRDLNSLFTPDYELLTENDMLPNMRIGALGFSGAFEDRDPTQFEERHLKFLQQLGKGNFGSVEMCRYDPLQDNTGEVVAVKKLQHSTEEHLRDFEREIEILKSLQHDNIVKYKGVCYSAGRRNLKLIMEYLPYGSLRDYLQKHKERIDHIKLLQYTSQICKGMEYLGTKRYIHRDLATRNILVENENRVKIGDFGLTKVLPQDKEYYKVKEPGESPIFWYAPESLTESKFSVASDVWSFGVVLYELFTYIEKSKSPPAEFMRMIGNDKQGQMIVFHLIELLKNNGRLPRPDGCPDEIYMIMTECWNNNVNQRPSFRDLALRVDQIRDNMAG
Assay Details: Inhibition of JAK2 (unknown origin) using FAM-labelled peptide and ATP at 100 nM measured after 25 mins incubation relative to control
Assay Endpoint: inhibition
Please answer using the number first and the unit second.

Solved cases below.
CS(=O)(=O)Nc1ccc(-c2ccnc(Nc3ccc(N4CCN(CC(=O)NCCCCCCC(=O)NO)CC4)cc3)n2)cc1 99%
CS(=O)(=O)Nc1ccc(-c2ccnc(Nc3ccc(-c4cn(CC(=O)NO)nn4)cc3)n2)cc1 99%
CS(=O)(=O)Nc1ccc(-c2ccnc(Nc3ccc(-c4cn(CC(=O)NCCCC(=O)NO)nn4)cc3)n2)cc1 99%
CS(=O)(=O)Nc1ccc(-c2ccnc(Nc3ccc(-c4cn(CC(=O)NCCC(=O)NO)nn4)cc3)n2)cc1 97%
CS(=O)(=O)Nc1ccc(-c2ccnc(Nc3ccc(-c4cn(CC(=O)Nc5ccc(C(=O)NO)cc5)nn4)cc3)n2)cc1 98%

Next molecule, please.
Report inhibition for CS(=O)(=O)Nc1ccc(-c2ccnc(Nc3ccc(N4CCN(CC(=O)NCCCCC(=O)NO)CC4)cc3)n2)cc1 please.
98%
